# System: breast MCF-7 cancer cells
# assayComment: Cytotoxic activity (MTT assay)
# Type: cell-based, human
# measurementParameters: 100 µM, 24 h, MTT
metricName: Cell Viability, % of Control, MCF-7

For C[C@H]1CC[C@H]2[C@@H](C=C[C@@](C)(O)[C@@H]2C(=O)CCO)[C@@H]1O [Compound 13, pallidopenilline A] the compound record lists Cell Viability, % of Control, MCF-7 as 95.05 ± 1.51 % of Control

Please fill in: Cell Viability, % of Control, MCF-7 reported for CC(=O)[C@@H]1[C@H]2CC[C@@](C)(O)C[C@@H]2C=C[C@@]1(C)O [Compound 5, zosteropenilline O] = 77.40 ± 2.73 % of Control

Notebook: CC(=O)OCCC(=O)[C@@H]1[C@H]2CC[C@H](C)[C@@H](O)[C@@H]2C=C[C@@]1(C)O [Compound 14, 1-acetylpallidopenilline A] , Cell Viability, % of Control, MCF-7 read as 23.71 ± 1.05 % of Control

* * *

# Tested on: cervical HeLa cancer cells
# assayComment: Cytotoxic activity (MTT assay)
# Type: cell-based, human
# measurementParameters: 100 µM, 24 h, MTT
metricName: Cell Viability, % of Control, HeLa

Consider the worked cases shown below.
C[C@H]1CC[C@@H]2[C@@H](C(=O)CCO)[C@](C)(O)C=C[C@H]2C1    34.35 ± 1.90 % of Control
CC1CCC2C(C1)C(Cl)C(O)C(C)(O)C2C(=O)CCO (stereo not shown)    68.69 ± 6.21 % of Control
CC(=O)C1C2CCC(C)C(O)C2C=CC1(C)O (stereo not shown)    80.80 ± 3.25 % of Control
C[C@H]1CC[C@H]2C(=C[C@@H](O)[C@@](C)(O)[C@@H]2C(=O)CCO)C1    79.14 ± 6.36 % of Control
CC(=O)[C@@H]1[C@H]2CC[C@@](C)(O)C[C@@H]2C=C[C@@]1(C)O    37.12 ± 3.85 % of Control

Here `CC(=O)OCCC(=O)[C@@H]1[C@H]2CC[C@H](C)[C@@H](O)[C@@H]2C=C[C@@]1(C)O` was tested on cervical HeLa cancer cells, and its Cell Viability, % of Control, HeLa came to 53.44 ± 2.14 % of Control

Readout Cell Viability, % of Control, HeLa for `C[C@H]1CC[C@H]2[C@@H](C=C[C@@](C)(O)[C@@H]2C(=O)CCO)[C@@H]1O` , test system cervical HeLa cancer cells, was 71.85 ± 3.02 % of Control

Simply: CC1=CC(O)C2CC(C)(O)CCC2C1C(=O)CCO (stereo not drawn) [Compound 2, 11-epi-8-hydroxyzosteropenilline M] , cervical HeLa cancer cells, Cell Viability, % of Control, HeLa = 44.12 ± 5.13 % of Control

Value sought: Cell Viability, % of Control, HeLa, system cervical HeLa cancer cells, item `CC1=C[C@H](O)[C@H]2C[C@@H](C)CC[C@@H]2[C@H]1C(=O)CCO` . Result: 66.49 ± 6.19 % of Control

The measured Cell Viability, % of Control, HeLa that CC1(O)CCC2C(C=CC(C)(O)C2C(=O)CCO)C1 (stereo not shown) [Compound 4, 8-hydroxyzosteropenilline G] showed for cervical HeLa cancer cells is 81.80 ± 6.76 % of Control

Value sought: Cell Viability, % of Control, HeLa, system cervical HeLa cancer cells, item `CC(=O)[C@@H]1[C@H]2CC[C@H](CO)C[C@@H]2C=C[C@@]1(C)O` . Result: 71.44 ± 3.99 % of Control

Record C[C@H]1C=C[C@H]2[C@H](O)[C@@H](C)CC[C@@H]2[C@H]1C(=O)CCO [Compound 8, 13-dehydroxypallidopenilline A] has cervical HeLa cancer cells Cell Viability, % of Control, HeLa equal to 72.66 ± 2.49 % of Control

Record `C[C@@]1(O)C=C[C@H]2C[C@@H](CO)CC[C@@H]2[C@H]1C(=O)CCO` has cervical HeLa cancer cells Cell Viability, % of Control, HeLa equal to 66.70 ± 6.64 % of Control
